experiment: Part B (MAD): plasma PK of Formula (IIa) and its metabolites after once-daily oral Formula (IIa) for 7 days, fasted; format: in vivo, human; conditions: human, in vivo, po, 400 mg, 400 mg Formula (IIa) QD oral, fasted, Day 1, plasma, median (min, max); read-out: Tmax
Quantity Kind: Tmax

Tmax for CO[C@H]1C(OP(=O)(OC[C@H]2O[C@@H](n3cnc4c(N)ncnc43)CC2O)SCOC(=O)OC(C)C)[C@@H](CO)O[C@H]1n1ccc(=O)[nH]c1=O (stereo partly shown) is 1.51 h

====

assay: Part A (SAD): plasma PK of Formula (IIa) and its metabolites after a single oral dose of Formula (IIa), fed or fasted; format: in vivo, human; conditions: human, in vivo, po, 800 mg, single oral 800 mg Formula (IIa), fasted, plasma, N=1; read-out: AUC0-t
Quantity Kind: AUC(0-t) (ng·h/mL)
Just the number in ng·h/mL, nothing appended.

For reference, reported AUC(0-t) for CO[C@H]1C(OP(=O)(OC[C@H]2O[C@@H](n3cnc4c(N)ncnc43)CC2O)SCOC(=O)OC(C)C)[C@@H](CO)O[C@H]1n1ccc(=O)[nH]c1=O (stereo partly shown) stands at 0.751

====

assay: Part B (MAD): plasma PK of Formula (IIa) and its metabolites after once-daily oral Formula (IIa) for 7 days, fasted; format: in vivo, human; settings: human, in vivo, po, 200 mg, 200 mg Formula (IIa) QD oral, fasted, Day 1, plasma, arithmetic mean (CV %); read-out: AUC0-24
Quantity Kind: AUC(0-t) (ng·h/mL)
Reply with just the number (in ng·h/mL).

AUC(0-t) reported for this molecule CO[C@H]1C(OP(=O)(OC[C@H]2O[C@@H](n3cnc4c(N)ncnc43)CC2O)SCOC(=O)OC(C)C)[C@@H](CO)O[C@H]1n1ccc(=O)[nH]c1=O (stereo partly shown) [Formula (IIa)] : 0.512

====

assay: Part B (MAD): plasma PK of Formula (IIa) and its metabolites after once-daily oral Formula (IIa) for 7 days, fasted; format: in vivo, human; conditions: human, in vivo, po, 900 mg, 900 mg Formula (IIa) QD oral, fasted, Day 1, plasma, median (min, max); read-out: Tmax
Quantity Kind: Tmax (h)
Enter your answer as a number in h; do not include the unit.

Field Tmax (entry CO[C@H]1C(OP(=O)(OC[C@H]2O[C@@H](n3cnc4c(N)ncnc43)CC2O)SCOC(=O)OC(C)C)[C@@H](CO)O[C@H]1n1ccc(=O)[nH]c1=O (stereo partly shown) ) reads 1.04

====

assay: Part A (SAD): plasma PK of Formula (IIa) and its metabolites after a single oral dose of Formula (IIa), fed or fasted; format: in vivo, human; details: human, in vivo; single oral 800 mg Formula (IIa), fed, plasma, N=1
Quantity Kind: AUC(0-inf) (ng·h/mL)
Could you give me the number in ng·h/mL? Just the number is fine.

The recorded AUC(0-inf) for CO[C@H]1C(OP(=O)(OC[C@H]2O[C@@H](n3cnc4c(N)ncnc43)CC2O)SCOC(=O)OC(C)C)[C@@H](CO)O[C@H]1n1ccc(=O)[nH]c1=O (stereo partly shown) [Formula (IIa)] is 1.39

====

test system: HCV from sera of patients infected with resistant strains; experiment: Capture fusion assay: THP-1 cells infected with patient serum, fused with Huh7.5, HCV RNA by PCR; format: cell-based; details: Hepatitis C virus, serum samples from 30 patients (Example 3); read-out: IC50 range for all patient samples
pIC50: −log10 of the molar value.
Quantity Kind: pIC50

Lab note: measured pIC50 of CO[C@H]1C(OP(=O)(OC[C@H]2O[C@@H](n3cnc4c(N)ncnc43)CC2O)SCOC(=O)OC(C)C)[C@@H](CO)O[C@H]1n1ccc(=O)[nH]c1=O (stereo partly shown) [Formula (IIa)] was 6.34 to 9.00

====

assay: Part B (MAD): plasma PK of Formula (IIa) and its metabolites after once-daily oral Formula (IIa) for 7 days, fasted; assay type: in vivo, human; conditions: human, in vivo, Days 1 and 7, across dose levels; read-out: terminal half-life (t1/2), range of means
Quantity Kind: half-life

Record CO[C@H]1C(OP(=O)(OC[C@H]2O[C@@H](n3cnc4c(N)ncnc43)CC2O)SCOC(=O)OC(C)C)[C@@H](CO)O[C@H]1n1ccc(=O)[nH]c1=O (stereo partly shown) , field half-life: 41 to 64.2 min

====

Assay: Part A (SAD): plasma PK of Formula (IIa) and its metabolites after a single oral dose of Formula (IIa), fed or fasted
Format: in vivo, human
Details: human, in vivo, po, 400 mg, single oral 400 mg Formula (IIa), fasted, plasma, N=1; read-out: AUC0-t
Procedure: The study was a Phase 1, two-part, first-in-human study of single (Part A) and multiple (Part B) ascending doses (SAD and MAD) of Formula (IIa) at doses of 100-900 mg given as a monotherapy for up to 7 days. […] For both Parts A and B, the Safety Review Committee (SRC) determined whether dose escalation occurred after review of all safety data and any available PK/PD data. […] All plasma PK calculations were performed using actual time points calculated relative to the time of last drug administration. […]
Quantity Kind: AUC(0-t) (ng·h/mL)
Value expressed in ng·h/mL; do not type the unit.

Value of measured AUC(0-t) for the entry CO[C@H]1C(OP(=O)(OC[C@H]2O[C@@H](n3cnc4c(N)ncnc43)CC2O)SCOC(=O)OC(C)C)[C@@H](CO)O[C@H]1n1ccc(=O)[nH]c1=O (stereo partly shown) : 1.31

====

test: Part A (SAD): plasma PK of Formula (IIa) and its metabolites after a single oral dose of Formula (IIa), fed or fasted; format: in vivo, human; settings: human, in vivo, po, 200 mg, single oral 200 mg Formula (IIa), fasted, plasma, N=1; read-out: AUC0-24
Quantity Kind: AUC(0-t) (ng·h/mL)
API: value field is a number in ng·h/mL; no unit string.

Note to self: AUC(0-t) recorded for CO[C@H]1C(OP(=O)(OC[C@H]2O[C@@H](n3cnc4c(N)ncnc43)CC2O)SCOC(=O)OC(C)C)[C@@H](CO)O[C@H]1n1ccc(=O)[nH]c1=O (stereo partly shown) was 0.433

====

Assay: Part B (MAD): plasma PK of Formula (IIa) and its metabolites after once-daily oral Formula (IIa) for 7 days, fasted
Type: in vivo, human
Details: human, in vivo, Day 1, 200-900 mg Formula (IIa) QD; read-out: median Tmax, range across dose levels
Procedure: Part B was a blinded, randomized, placebo-controlled MAD study consisting of four cohorts of eight subjects randomized 6:2 to receive Formula (IIa) or placebo. […] The starting dose was determined by the SRC based on review of all safety and any available PK/PD data from Part A. All subjects were dosed in the fasted state with Formula (IIa) daily, from Day 1 until Day 8. […] All plasma PK calculations were performed using actual time points calculated relative to the time of last drug administration. […]
Quantity Kind: Tmax

Record CO[C@H]1C(OP(=O)(OC[C@H]2O[C@@H](n3cnc4c(N)ncnc43)CC2O)SCOC(=O)OC(C)C)[C@@H](CO)O[C@H]1n1ccc(=O)[nH]c1=O (stereo partly shown) [Formula (IIa)] , field Tmax: 1 to 1.51 h

====

assay: Part B (MAD): plasma PK of Formula (IIa) and its metabolites after once-daily oral Formula (IIa) for 7 days, fasted; type: in vivo, human; settings: human, in vivo, po, 200 mg, 200 mg Formula (IIa) QD oral, fasted, Day 1, plasma, arithmetic mean (CV %); read-out: AUC0-t
Quantity Kind: AUC(0-t)
Write your answer as a measured quantity: the number, then the unit.

Just so you know, measured AUC(0-t) for CO[C@H]1C(OP(=O)(OC[C@H]2O[C@@H](n3cnc4c(N)ncnc43)CC2O)SCOC(=O)OC(C)C)[C@@H](CO)O[C@H]1n1ccc(=O)[nH]c1=O (stereo partly shown) came out at 0.393 ng·h/mL

====

assay: Part A (SAD): plasma PK of Formula (IIa) and its metabolites after a single oral dose of Formula (IIa), fed or fasted; format: in vivo, human; details: human, in vivo, po, 200 mg, single oral 200 mg Formula (IIa), fasted, plasma, N=1; read-out: Tmax
Quantity Kind: Tmax (h)
Respond numerically; units are h and should not be typed.

According to the records, this molecule CO[C@H]1C(OP(=O)(OC[C@H]2O[C@@H](n3cnc4c(N)ncnc43)CC2O)SCOC(=O)OC(C)C)[C@@H](CO)O[C@H]1n1ccc(=O)[nH]c1=O (stereo partly shown) displays Tmax of 1

====

test: Part A (SAD): plasma PK of Formula (IIa) and its metabolites after a single oral dose of Formula (IIa), fed or fasted; assay type: in vivo, human; settings: human, in vivo, po, 400 mg, single oral 400 mg Formula (IIa), fed, plasma, N=1; read-out: AUC0-t
Quantity Kind: AUC(0-t)
Kindly format the answer as number then unit.

AUC(0-t) recorded for this compound, CO[C@H]1C(OP(=O)(OC[C@H]2O[C@@H](n3cnc4c(N)ncnc43)CC2O)SCOC(=O)OC(C)C)[C@@H](CO)O[C@H]1n1ccc(=O)[nH]c1=O (stereo partly shown) , is 1.07 ng·h/mL
